# cytotoxicity at 70.5 h listing for each entry below
protocol: Human HepG2 cell viability assay in 384 well format
Assay type: toxicity, cell-based
Parameters: dose 125 nL, time 70.5 hour; concentration not given beside the values
condition-description: HepG2 cells, read-out: Inhibition
Supply the numeric figure in %, leaving out any unit text.

compound: CCc1nc(C)c(C(=O)N(C)Cc2cnc3ccccn23)o1
assay-result: -7.82
--
compound: Cc1cnc(-c2nc(C3CCCN(Cc4ccccc4C)C3)no2)cn1 (stereo unspecified)
assay-result: 21.7
--
compound: Cc1cc(=O)c(C(=O)Nc2cccc(CCN3CCCC3)c2)c[nH]1
assay-result: -2.1
--
compound: Cc1cccc(C)c1Oc1ncccc1CNC(=O)C1COC(=O)N1 (stereo unspecified)
assay-result: -21.8
--
compound: O=C1N(Cc2cccc(F)c2)CCC12CCN(c1ccccn1)CC2
assay-result: -8.45
--
compound: COc1ccc(CNC2(Cc3cc(CC(C)C)on3)COC2)cc1
assay-result: 9.64
--
compound: CN1CCN(S(=O)(=O)c2cccc(F)c2)Cc2cccnc21
assay-result: -2.06
--
compound: CSc1ncc(C(=O)N2C[C@@H](NC(C)=O)[C@H](c3ccc(C)cc3)C2)cn1
assay-result: -5.41

I'd like to know its cytotoxicity at 70.5 h. The compound in question is "COc1ccc(-c2ccnc(N)c2)c(C)c1"
-15.9

I'd like to know its cytotoxicity at 70.5 h. The compound in question is "O=C(c1cc(COc2ccc3c(c2)OCO3)[nH]n1)N1CCOCC1"
9.33

I'd like to know its cytotoxicity at 70.5 h. The compound in question is CCN1CCC2(COCc3cnc(NCC4CC4)nc32)C1 (stereo unspecified)
-4.64
